Tested on: K562 cell line
Assay: Cell viability assay ([…]-GLO), K562
Format: cell-based
Conditions: Homo sapiens; K562 (does not express ITD-FLT3), 72 hours treatment
assay_endpoint: IC50 (µM)

Solved entries:
{"molecule": "COC1(CNC(=O)c2cccc([C@@H](CO)NC(=O)c3ccc(-c4ccncc4)cc3)c2)CCC1", "IC50, µM": 27}
{"molecule": "CN1CCc2ccc(NC(=O)c3cccc(CNC(=O)c4ccc(-c5ccncc5)cc4)c3)cc2C1 [Compound B, reference compound]", "IC50, µM": 20}
{"molecule": "O=C(NCC1(O)CCCCC1)c1cccc([C@@H](CO)NC(=O)c2ccc(-c3ccncc3)cc2)c1", "IC50, µM": 52}
{"molecule": "COc1cccc(CNC(=O)c2cccc([C@@H](CO)NC(=O)c3ccc(-c4ccncc4)cc3)c2)c1", "IC50, µM": 28}
{"molecule": "CN(C)Cc1ccc(CNC(=O)c2cccc([C@@H](CO)NC(=O)c3ccc(-c4ccncc4)cn3)c2)cc1", "IC50, µM": 36}

(A) COCC1(NC(=O)c2cccc([C@@H](CO)NC(=O)c3ccc(-c4ccncc4)cc3)c2)CCCC1
(B) CN(C)C1(CNC(=O)c2cccc([C@@H](CO)NC(=O)c3ccc(-c4ccncc4)cc3)c2)CCCC1
Request: Select one: A or B . Criterion: greater recorded IC50. Use the label to indicate which entry you chose.
Result: B
(B: 89 µM, A: 41 µM)

Cited source for all entries: patent US10738007B2
